List of growth values.
# Tested on: HOP-62 NSCLC
# Assay Protocol: NCI-60 one-dose screen, 48 h (100 = growth as untreated, 0 = no growth, -100 = all killed)
# Measurement Context: 10 µM unless noted
# Description: Growth inhibition of the HOP-62 human Non-Small Cell Lung tumor cell line is measured as a screen for anti-cancer activity. Cells are grown in 96 well plates and exposed to the test compound for 48 hours. Compounds are tested at a single concentration, which is 10^-5 M for most compounds. The reported endpoint is percent growth (GI% or GIPRCNT), where numbers from 0 - 100% represent growth inhibition, and numbers from -100% - 0 represent cell death. […]
About 83,000 compounds went through this panel and 20% of them were active in at least one assay; those are over-represented in the sample as a whole.
Your answer is read as %, so omit the unit and give the number.

The cases that follow already have their growth on record.
CC(=O)C1Cc2ccccc2C1=O (configuration not stated): 90.5
S=C(S)OCN1CCOCC1: 108
Cc1nc(Sc2nc3ccc([N+](=O)[O-])cc3s2)sc1C: 72.2
COC(=O)c1nc(=S)[nH]c(C(=O)OC)c1C(=O)c1ccc(Cl)c(Cl)c1: 115

I would be grateful if you could share the reported growth for O=C(Cc1nc2cc(Cl)c(Cl)cc2nc1CC(=O)c1ccccc1)c1ccccc1 .
70.5

I would be grateful if you could share the reported growth for O=[n+]1c2ccccc2n([O-])c2cc(Cl)ccc21 .
77.4

I would be grateful if you could share the reported growth for O=C1Nc2ccc(Br)cc2C1=O .
100

----------
# Test system: HOP-92 NSCLC
# Assay Protocol: NCI-60 one-dose screen, 48 h (100 = growth as untreated, 0 = no growth, -100 = all killed)
# Measurement Context: 10 µM unless noted
Compounds without any hit were thinned out: in the full panel of roughly 83,000, 20% have a hit. Where a SMILES comes first, the peptide text is derived from it. [ ]: non-standard residue; d: D form. ξ: configuration not given here. ξD = NC(CC(=O)O)C(=O)O
List of growth values.
Your answer is read as %, so omit the unit and give the number.

The cases that follow already have their growth on record.
N#CC1c2ccccc2C=CN1C(=O)CCCl (centres undefined): 60.7
CCN(CC)CCNc1ccc([N+](=O)[O-])c2sc3ccccc3c(=O)c12: 16.9
COc1cc(/C=C/C(=O)CC(=O)/C=C/c2ccc(O)c(OC)c2)ccc1O: 71.9
CC(=O)Nc1ccc(C(=O)CCl)cc1: 62
CN(C)CC(C)(CN(C)C)C(=O)/C=C/c1c(Cl)cccc1Cl: 40.1
NCC(=O)NC(CC(=O)O)C(=O)O (centres undefined) (H-Gly-[ξD]-OH): 100
COc1cccc2c1C(=O)c1c(O)c3c(c(O)c1C2=O)C[C@@](O)(C(=O)CO)C[C@@H]3OC1CC(OC(C)=O)C(OC(C)=O)C(C)O1 (some centres undefined): -28.9
CCN(CC)c1ccc(/C=C\C(=O)c2ccc(NC(C)=O)cc2)cc1: 70.9

We next turn to a different compound, shown below.
I would be grateful if you could share the reported growth for O=C(CCl)N(c1ccccc1)c1ccccc1 .
78.5

----------
# System: SF-539 CNS
# Assay Protocol: NCI-60 one-dose screen, 48 h (100 = growth as untreated, 0 = no growth, -100 = all killed)
# Measurement Context: 10 µM unless noted
Compounds without any hit were thinned out: in the full panel of roughly 83,000, 20% have a hit.
Mark T only for growth values smaller than 30%; exact matches and larger values are F.

Please review the entries below; each comes with its answer.
Nc1ccc(C(=O)/C=C/c2ccccc2)cc1: F
CCCCC(CCc1ccc([N+](=O)[O-])cc1)(C(C)=O)C(=O)OCC (centres undefined): F
O=C(Nc1ccc(Cl)c(Cl)c1)OCc1ccco1: F

Here's an entry: CC(C)(C)c1ccc(O)c(Br)c1 . Is its growth below 30%?
F

Here's an entry: O=C(/C=C/c1ccccc1)c1ccccc1O . Is its growth below 30%?
F

Here's an entry: Oc1ccc(Cl)cc1C(c1cc(Cl)ccc1O)C(Cl)(Cl)Cl . Is its growth below 30%?
F

Here's an entry: CCCOC(=O)c1nc(N(CC2CCCCC2)C(=O)NC)sc1/N=C/c1ccccc1 . Is its growth below 30%?
T

Here's an entry: Cc1cc(C(=O)c2ccc(Cl)cc2)ccc1O . Is its growth below 30%?
F

Here's an entry: CCCCCCCCCCCC[n+]1ccc2ccccc2c1 . Is its growth below 30%?
T

Here's an entry: CC(C)(C)c1ccc(CCO)cc1 . Is its growth below 30%?
F

Here's an entry: O=C(OC12CC3CC(CC(C3)C1)C2)c1ccc(NCc2cc(O)ccc2O)cc1 . Is its growth below 30%?
T

Here's an entry: O=C(NOC(=O)c1ccccc1)c1ccccc1 . Is its growth below 30%?
F

Here's an entry: N#CC1c2ccccc2C=CN1C(=O)CCCl (centres undefined) . Is its growth below 30%?
F

Here's an entry: O=C(C[P+](c1ccccc1)(c1ccccc1)c1ccccc1)c1ccccc1 . Is its growth below 30%?
F

Here's an entry: OC(c1cc(C23CC4CC(CC(C4)C2)C3)nc2c(Cl)cc(Cl)cc12)C1CCCCN1 (centres undefined) . Is its growth below 30%?
T

Here's an entry: COC(=O)Nc1nc2ccc(C3(c4ccc(F)cc4)OCCO3)cc2[nH]1 . Is its growth below 30%?
T

Here's an entry: CCCCCCCCCCCC[N+]1(CCCCCCCCCCCC)CCCC(C)C1 (centres undefined) . Is its growth below 30%?
T

Here's an entry: O=C1C=Cc2ccccc2/C1=C/c1nc(-c2ccccc2)oc1O . Is its growth below 30%?
F

Here's an entry: CCCCN(CCCC)CCCCCCCCCCO . Is its growth below 30%?
F

Here's an entry: COc1cc(/C=C/c2ccnc3ccccc23)cc(OC)c1OC . Is its growth below 30%?
F
